target: telomerase (Homo sapiens); assay: Telomerase extension of 32P-end labeled primers with a single dNTP (percent primer extension); format: biochemical; set-up: made in house; anti-FLAG immunopurification, eluted with 3xFLAG peptide; details: Primer 2; 50µM dNTP
# Lookup of reported % Primer Extension keyed by entry
Numeric answer only, unit % assumed.

Reference set, count: 6
-- ask Returns the measured % Primer Extension for the input compound. Input: Nc1nc(O)nc2c1ncn2C1CC(O)C(COP(=O)(O)OP(=O)(O)OP(=O)(O)O)O1 (stereo not drawn)
-- reply 1.93

-- ask What would you report for Nc1nc2c(ncn2C2CC(O)C(COP(=O)(O)OP(=O)(O)OP(=O)(O)O)O2)c(=S)[nH]1 (stereo not drawn) ?
-- reply 6.25

-- ask Ok, now Cc1cn(C2CC(O)C(COP(=O)(O)OP(=O)(O)OP(=O)(O)O)O2)c(=O)[nH]c1=O (stereo not drawn)
-- reply 0.00

-- ask What about Cc1cn([C@H]2C[C@H](N=[N+]=[N-])[C@@H](CO)O2)c(=O)[nH]c1=O ?
-- reply 0

-- ask Try Nc1ncnc2c1[nH]c(=O)n2C1CC(O)C(COP(=O)(O)OP(=O)(O)OP(=O)(O)O)O1 (stereo not drawn) next.
-- reply 0.00

-- ask Entry to check: O=c1[nH]cnc2c1ncn2C1CCC(COP(=O)(O)OP(=O)(O)OP(=O)(O)O)O1 (stereo not drawn)
-- reply 4.27

New cases:
-- ask Find the recorded % Primer Extension belonging to Nc1ncnc2c1ncn2C1CC(O)C(COP(=O)(O)OP(=O)(O)OP(=O)(O)O)O1 (stereo not drawn) and report it.
-- reply 0.00

-- ask Same again, this time with Nc1ccn([C@H]2C[C@H](O)[C@@H](COP(=O)(O)OP(=O)(O)OP(=O)(O)O)O2)c(=O)n1
-- reply 0.00

-- ask Another compound to check: Nc1nc2c([nH]c(=O)n2C2CC(O)C(COP(=O)(O)OP(=O)(O)OP(=O)(O)O)O2)c(=O)[nH]1 (stereo not drawn)
-- reply 1.37

----------
Listed here: items and their measured % Primer Extension.
Target: telomerase (Homo sapiens)
Experiment: Telomerase extension of 32P-end labeled primers with a single dNTP (percent primer extension)
Assay type: biochemical
Design: made in house; anti-FLAG immunopurification, eluted with 3xFLAG peptide
Conditions: Primer 2; 5µM dNTP
Experimental: A chain terminating mechanism of inhibition requires that the enzyme adds the modified dNTP to a growing chain, which then blocks further synthesis. […] To test whether telomerase can incorporate other modified dNTPs, and whether the incorporation is chain terminating and/or mutagenic, we conducted direct extension assays in which we radiolabeled the primer and added increasing concentrations (5, 50, and 500 μM) of a single dNTP (Supplementary Figs. 3, 5, 6, and 7). […]
State the value, then name its unit.

-- ask # query: % Primer Extension of entry Nc1nc(O)nc2c1ncn2C1CC(O)C(COP(=O)(O)OP(=O)(O)OP(=O)(O)O)O1 (stereo not shown) [2-OH-dATP]
-- reply 0.00%

-- ask Also check Cc1cn(C2CC(O)C(COP(=O)(O)OP(=O)(O)OP(=O)(O)O)O2)c(=O)[nH]c1=O (stereo not shown) [dTTP]
-- reply 0.00%

New cases:
-- ask Item under review: Cc1cn([C@H]2C[C@H](N=[N+]=[N-])[C@@H](CO)O2)c(=O)[nH]c1=O [AZT] . Reported % Primer Extension?
-- reply 0%

-- ask Now this one: O=c1[nH]cnc2c1ncn2C1CCC(COP(=O)(O)OP(=O)(O)OP(=O)(O)O)O1 (stereo not shown) [ddITP]
-- reply 0%

-- ask // same read-out, input: Nc1ncnc2c1[nH]c(=O)n2C1CC(O)C(COP(=O)(O)OP(=O)(O)OP(=O)(O)O)O1 (stereo not shown) [8-oxo-dATP]
-- reply 0.00%

-- ask # repeat for Nc1ncnc2c1ncn2C1CC(O)C(COP(=O)(O)OP(=O)(O)OP(=O)(O)O)O1 (stereo not shown) [dATP]
-- reply 0.00%

-- ask Now the same for Nc1nc2c([nH]c(=O)n2C2CC(O)C(COP(=O)(O)OP(=O)(O)OP(=O)(O)O)O2)c(=O)[nH]1 (stereo not shown) [8-oxo-dGTP]
-- reply 0.88%

----------
Attribute: % Primer Extension
biological target: telomerase (Homo sapiens, UniProt O14746); assay: Telomerase extension of 32P-end labeled primers with a single dNTP (percent primer extension); assay type: biochemical; set-up: made in house; anti-FLAG immunopurification, eluted with 3xFLAG peptide; conditions: Primer 2; 500µM dNTP
Sequence (O14746 whole entry): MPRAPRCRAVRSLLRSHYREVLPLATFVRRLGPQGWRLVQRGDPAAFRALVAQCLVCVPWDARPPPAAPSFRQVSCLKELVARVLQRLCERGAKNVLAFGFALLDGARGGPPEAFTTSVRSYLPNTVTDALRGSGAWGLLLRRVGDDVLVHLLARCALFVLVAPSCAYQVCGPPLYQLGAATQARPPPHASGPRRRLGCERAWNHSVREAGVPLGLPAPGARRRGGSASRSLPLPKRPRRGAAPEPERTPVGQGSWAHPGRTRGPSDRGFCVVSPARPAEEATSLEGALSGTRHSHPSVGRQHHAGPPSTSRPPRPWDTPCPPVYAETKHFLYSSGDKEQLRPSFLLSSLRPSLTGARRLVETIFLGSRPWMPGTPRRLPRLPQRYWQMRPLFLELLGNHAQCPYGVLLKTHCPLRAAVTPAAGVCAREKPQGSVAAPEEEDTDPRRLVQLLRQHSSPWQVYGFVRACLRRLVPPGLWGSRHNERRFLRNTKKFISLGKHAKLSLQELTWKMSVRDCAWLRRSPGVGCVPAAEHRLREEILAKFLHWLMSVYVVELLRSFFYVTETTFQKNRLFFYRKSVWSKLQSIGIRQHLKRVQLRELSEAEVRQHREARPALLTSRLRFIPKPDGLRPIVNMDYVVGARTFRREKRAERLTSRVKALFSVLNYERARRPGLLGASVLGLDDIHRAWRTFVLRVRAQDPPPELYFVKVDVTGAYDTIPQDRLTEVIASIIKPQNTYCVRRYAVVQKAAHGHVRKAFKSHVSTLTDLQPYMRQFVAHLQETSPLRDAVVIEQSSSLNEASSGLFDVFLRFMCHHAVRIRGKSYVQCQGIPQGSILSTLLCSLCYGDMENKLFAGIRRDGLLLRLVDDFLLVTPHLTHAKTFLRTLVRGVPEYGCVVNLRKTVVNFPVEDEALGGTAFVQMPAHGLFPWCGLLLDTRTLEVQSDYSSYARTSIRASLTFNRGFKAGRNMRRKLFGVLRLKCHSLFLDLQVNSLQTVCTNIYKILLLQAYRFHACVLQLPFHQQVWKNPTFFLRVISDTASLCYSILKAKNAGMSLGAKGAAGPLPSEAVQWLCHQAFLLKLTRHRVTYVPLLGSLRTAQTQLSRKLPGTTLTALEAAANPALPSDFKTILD
Give just the numeric value; % need not be written.

Sample answers from the record:
-- ask Form: Entry = Nc1ncnc2c1ncn2C1CC(O)C(COP(=O)(O)OP(=O)(O)OP(=O)(O)O)O1 (stereo not drawn) [dATP] | System = telomerase (Homo sapiens, UniProt O14746) | % Primer Extension = ____
-- reply 2.50

-- ask Also need Nc1ncnc2c1[nH]c(=O)n2C1CC(O)C(COP(=O)(O)OP(=O)(O)OP(=O)(O)O)O1 (stereo not drawn) [8-oxo-dATP] , thanks.
-- reply 0.00

Moving on to another compound below.
-- ask Give the reported % Primer Extension for Nc1nc(O)nc2c1ncn2C1CC(O)C(COP(=O)(O)OP(=O)(O)OP(=O)(O)O)O1 (stereo not drawn) [2-OH-dATP] (system: telomerase (Homo sapiens, UniProt O14746)).
-- reply 3.14

----------
molecular target: UniProtKB O14746; test: Telomerase extension of 32P-end labeled primers with a single dNTP (percent primer extension); assay type: biochemical; design: made in house; anti-FLAG immunopurification, eluted with 3xFLAG peptide; conditions: Primer 3; 500µM dNTP
Parameter: % Primer Extension. Scope: all listed entries.
State the answer as a number, implicitly in %.

Some solved cases for reference:
-- ask So what's the measured % Primer Extension for this one? Nc1nc2c(ncn2C2CC(O)C(COP(=O)(O)OP(=O)(O)OP(=O)(O)O)O2)c(=S)[nH]1 (stereo not shown)
-- reply 7.79

-- ask Would you kindly repeat that for O=c1[nH]cnc2c1ncn2C1CCC(COP(=O)(O)OP(=O)(O)OP(=O)(O)O)O1 (stereo not shown) ?
-- reply 0

-- ask Also Nc1ncnc2c1ncn2C1CC(O)C(COP(=O)(O)OP(=O)(O)OP(=O)(O)O)O1 (stereo not shown) ?
-- reply 23.85

More entries:
-- ask Requested read-out: % Primer Extension. Entry: Nc1nc2c([nH]c(=O)n2C2CC(O)C(COP(=O)(O)OP(=O)(O)OP(=O)(O)O)O2)c(=O)[nH]1 (stereo not shown)
-- reply 0.00

Where do these numbers come from? They come from paper PMC7576608.
